Below, each of the molecules is paired with its reported IC50 value.
System: 192522-019-R-J2-PDC complex tumor spheroid viability
Experiment: Anticancer human tumor 192522-019-R-J2-PDC patient-derived colon adenocarcinoma cell line growth inhibition [POLQ]
Conditions: curve of first compound; second compound 1 µM
REPORTED PROPERTY: IC50

# MOLECULE, TEST TARGET, ASSAY VALUE
data = [
    ("COc1cccc2c1C(=O)c1c(O)c3c(c(O)c1C2=O)CC(O)(C(=O)CO)CC3OC1CC(N)C(O)C(C)O1 (centres undefined) + Cc1cccc(N(C)C(=O)C2C(O)CCN2c2nc(C)cc(C(F)(F)F)c2C#N)c1", "192522-019-R-J2-PDC complex tumor spheroid viability", "> 10 µM"),
    ("CC(=O)O[C@H]1C(=O)[C@@]2(C)[C@H]([C@H](OC(=O)c3ccccc3)[C@]3(O)C[C@H](OC(=O)[C@H](O)[C@@H](NC(=O)c4ccccc4)c4ccccc4)C(C)=C1C3(C)C)[C@]1(OC(C)=O)CO[C@@H]1C[C@@H]2O + COC1C(OC(N)=O)C(O)C(Oc2ccc3c(O)c(NC(=O)c4ccc(O)c(CC=C(C)C)c4)c(=O)oc3c2C)OC1(C)C", "192522-019-R-J2-PDC complex tumor spheroid viability", "> 3 µM"),
    ("C=CC(=O)N1CCN(c2nc(=O)n(-c3c(C)ccnc3C(C)C)c3nc(-c4c(O)cccc4F)c(F)cc23)C(C)C1 (centres undefined) + COC1C(OC(N)=O)C(O)C(Oc2ccc3c(O)c(NC(=O)c4ccc(O)c(CC=C(C)C)c4)c(=O)oc3c2C)OC1(C)C", "192522-019-R-J2-PDC complex tumor spheroid viability", "> 10 µM"),
    ("Cn1ncnc1[C@H]1c2n[nH]c(=O)c3cc(F)cc(c23)N[C@@H]1c1ccc(F)cc1 + COC1C(OC(N)=O)C(O)C(Oc2ccc3c(O)c(NC(=O)c4ccc(O)c(CC=C(C)C)c4)c(=O)oc3c2C)OC1(C)C", "192522-019-R-J2-PDC complex tumor spheroid viability", "> 0.1 µM"),
]

----------
System: 192522-019-R-J2-PDC complex tumor spheroid viability
Assay: Anticancer human tumor 192522-019-R-J2-PDC cell line growth inhibition [POLQ];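 also: spheroids exposed to drugs for seven days before reading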;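 as to viability, T/C: 100% = DMSO vehicle control viability in luminescence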
Settings: second compound 0.0316 µM; first compound 0.1 µM; stronger effect = lower value
Experimental: Multicellular complex tumor spheroid response to Polymerase (POL) inhibitors (novobiocin, ART-558, RP6685) in combination with a variety of drugs and investigational agents in selected tumor cell lines The POL inhibitors (novobiocin, ART-558, and RP6685) were evaluated both individually and in combination with standard of care and investigational anticancer small molecules within a complex spheroid model of solid tumors. . […]
REPORTED PROPERTY: viability, T/C (%)

# COMPOUND, UNIT SPEC, ASSAY VALUE
measured = [
    ("CCc1cc2c(N3CCc4c(cc(Cn5ccnc5)cc4-c4cn(C)nc4C(F)(F)F)C3=O)ccnc2c(OC)n1 + Nc1ccc(C#CCN(C(=O)Cc2ncc(C(F)(F)F)cc2C(F)(F)F)c2ccc(F)cc2)nn1", "%", 94.7),
    ("CC1COCCN1c1cc(C2(O)CC3CCC(C2)O3)c2cnn(-c3ccn[nH]3)c2n1 (stereo unspecified) + COC1C(OC(N)=O)C(O)C(Oc2ccc3c(O)c(NC(=O)c4ccc(O)c(CC=C(C)C)c4)c(=O)oc3c2C)OC1(C)C", "%", 70.3),
    ("CNCc1ccc(-c2[nH]c3cc(F)cc4c3c2CCNC4=O)cc1 + Cc1cccc(N(C)C(=O)C2C(O)CCN2c2nc(C)cc(C(F)(F)F)c2C#N)c1", "%", 96.2),
    ("COc1ccc([C@@H](O)c2cc(-c3ncnc4cc(N5CCOCC5)ccc34)c(F)cc2Cl)nn1 + Cc1cccc(N(C)C(=O)C2C(O)CCN2c2nc(C)cc(C(F)(F)F)c2C#N)c1", "%", 86),
    ("COc1cc2cc(C(=O)CCC(=O)O)sc2cc1OC + Cc1cccc(N(C)C(=O)C2C(O)CCN2c2nc(C)cc(C(F)(F)F)c2C#N)c1", "%", 97.4),
    ("COc1cccc(OCCCN)c1-c1cc(Nc2cnc(C#N)cn2)n[nH]1 + Cc1cccc(N(C)C(=O)C2C(O)CCN2c2nc(C)cc(C(F)(F)F)c2C#N)c1", "%", 41),
    ("CC(C)n1c(=O)n(C)c2cnc3cc(F)c(-c4ccc(OCCCN5CCCCC5)nc4)cc3c21 + Nc1ccc(C#CCN(C(=O)Cc2ncc(C(F)(F)F)cc2C(F)(F)F)c2ccc(F)cc2)nn1", "%", 97.6),
    ("O=c1[nH]cc(F)c(=O)[nH]1 + Nc1ccc(C#CCN(C(=O)Cc2ncc(C(F)(F)F)cc2C(F)(F)F)c2ccc(F)cc2)nn1", "%", 98.4),
    ("COc1cccc(OCCCN)c1-c1cc(Nc2cnc(C#N)cn2)n[nH]1 + COC1C(OC(N)=O)C(O)C(Oc2ccc3c(O)c(NC(=O)c4ccc(O)c(CC=C(C)C)c4)c(=O)oc3c2C)OC1(C)C", "%", 30.8),
    ("C#Cc1c(F)ccc2cc(O)cc(-c3ncc4c(N5CC6CCC(C5)N6)nc(OCC56CCCN5CC(F)C6)nc4c3F)c12 (stereo unspecified) + COC1C(OC(N)=O)C(O)C(Oc2ccc3c(O)c(NC(=O)c4ccc(O)c(CC=C(C)C)c4)c(=O)oc3c2C)OC1(C)C", "%", 78.8),
    ("COc1cc2cc(C(=O)CCC(=O)O)sc2cc1OC + Nc1ccc(C#CCN(C(=O)Cc2ncc(C(F)(F)F)cc2C(F)(F)F)c2ccc(F)cc2)nn1", "%", 105),
]

----------
Test system: 192522-019-R-J2-PDC complex tumor spheroid viability
Experiment: Anticancer human tumor 192522-019-R-J2-PDC cell line growth inhibition [POLQ];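 also: spheroids exposed to drugs for seven days before reading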;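 as to viability, T/C: 100% = DMSO vehicle control viability in luminescence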
Details: second compound 0.316 µM; first compound 10 µM; stronger effect = lower value
REPORTED PROPERTY: viability, T/C

# COMPOUND, ASSAY VALUE
rows = [
    ("O=c1[nH]cc(F)c(=O)[nH]1 + Cc1cccc(N(C)C(=O)C2C(O)CCN2c2nc(C)cc(C(F)(F)F)c2C#N)c1", "86.1%"),
    ("CNCc1ccc(-c2[nH]c3cc(F)cc4c3c2CCNC4=O)cc1 + Cc1cccc(N(C)C(=O)C2C(O)CCN2c2nc(C)cc(C(F)(F)F)c2C#N)c1", "102%"),
    ("CCc1cc2c(N3CCc4c(cc(Cn5ccnc5)cc4-c4cn(C)nc4C(F)(F)F)C3=O)ccnc2c(OC)n1 + Nc1ccc(C#CCN(C(=O)Cc2ncc(C(F)(F)F)cc2C(F)(F)F)c2ccc(F)cc2)nn1", "77.1%"),
]

----------
Test system: 192522-019-R-J2-PDC complex tumor spheroid viability
Assay: Anticancer human tumor 192522-019-R-J2-PDC cell line growth inhibition [POLQ];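 also: spheroids exposed to drugs for seven days before reading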;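 as to viability, T/C: 100% = DMSO vehicle control viability in luminescence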
Conditions: second compound 0.316 µM; first compound 3.16 µM; stronger effect = lower value
Below, each of the compounds is paired with its reported viability, T/C value.

# COMPOUND, viability, T/C / %
data = [
    ("CC1COCCN1c1cc(C2(O)CC3CCC(C2)O3)c2cnn(-c3ccn[nH]3)c2n1 (stereo unspecified) + Nc1ccc(C#CCN(C(=O)Cc2ncc(C(F)(F)F)cc2C(F)(F)F)c2ccc(F)cc2)nn1", 44.7),
    ("O=c1[nH]cc(F)c(=O)[nH]1 + Nc1ccc(C#CCN(C(=O)Cc2ncc(C(F)(F)F)cc2C(F)(F)F)c2ccc(F)cc2)nn1", 88.2),
    ("COc1cccc2c1C(=O)c1c(O)c3c(c(O)c1C2=O)CC(O)(C(=O)CO)CC3OC1CC(N)C(O)C(C)O1 (stereo unspecified) + Nc1ccc(C#CCN(C(=O)Cc2ncc(C(F)(F)F)cc2C(F)(F)F)c2ccc(F)cc2)nn1", 73.5),
    ("Nc1ccn(C2OC(CO)C(O)C2(F)F)c(=O)n1 (stereo unspecified) + COC1C(OC(N)=O)C(O)C(Oc2ccc3c(O)c(NC(=O)c4ccc(O)c(CC=C(C)C)c4)c(=O)oc3c2C)OC1(C)C", 60.3),
    ("COc1cccc2c1C(=O)c1c(O)c3c(c(O)c1C2=O)CC(O)(C(=O)CO)CC3OC1CC(N)C(O)C(C)O1 (stereo unspecified) + COC1C(OC(N)=O)C(O)C(Oc2ccc3c(O)c(NC(=O)c4ccc(O)c(CC=C(C)C)c4)c(=O)oc3c2C)OC1(C)C", 61.9),
    ("CC1COCCN1c1cc(C2(O)CC3CCC(C2)O3)c2cnn(-c3ccn[nH]3)c2n1 (stereo unspecified) + COC1C(OC(N)=O)C(O)C(Oc2ccc3c(O)c(NC(=O)c4ccc(O)c(CC=C(C)C)c4)c(=O)oc3c2C)OC1(C)C", 40.7),
    ("O=C(Nc1ccc(O)c(NS(=O)(=O)c2ccc(F)cc2)c1)c1ccc(-c2ccccc2)cc1 + COC1C(OC(N)=O)C(O)C(Oc2ccc3c(O)c(NC(=O)c4ccc(O)c(CC=C(C)C)c4)c(=O)oc3c2C)OC1(C)C", 94.7),
    ("CCc1cc2c(N3CCc4c(cc(Cn5ccnc5)cc4-c4cn(C)nc4C(F)(F)F)C3=O)ccnc2c(OC)n1 + Cc1cccc(N(C)C(=O)C2C(O)CCN2c2nc(C)cc(C(F)(F)F)c2C#N)c1", 85.2),
    ("COc1ccc([C@@H](O)c2cc(-c3ncnc4cc(N5CCOCC5)ccc34)c(F)cc2Cl)nn1 + Cc1cccc(N(C)C(=O)C2C(O)CCN2c2nc(C)cc(C(F)(F)F)c2C#N)c1", 84.9),
    ("CC1COCCN1c1cc(C2(O)CC3CCC(C2)O3)c2cnn(-c3ccn[nH]3)c2n1 (stereo unspecified) + Cc1cccc(N(C)C(=O)C2C(O)CCN2c2nc(C)cc(C(F)(F)F)c2C#N)c1", 43.5),
    ("COc1cc2cc(C(=O)CCC(=O)O)sc2cc1OC + COC1C(OC(N)=O)C(O)C(Oc2ccc3c(O)c(NC(=O)c4ccc(O)c(CC=C(C)C)c4)c(=O)oc3c2C)OC1(C)C", 96.9),
    ("CC1COCCN1c1cc(C2(S(C)(=N)=O)CC2)nc(-c2ccnc3[nH]ccc23)n1 (stereo unspecified) + COC1C(OC(N)=O)C(O)C(Oc2ccc3c(O)c(NC(=O)c4ccc(O)c(CC=C(C)C)c4)c(=O)oc3c2C)OC1(C)C", 51),
    ("COc1cccc2c1C(=O)c1c(O)c3c(c(O)c1C2=O)CC(O)(C(=O)CO)CC3OC1CC(N)C(O)C(C)O1 (stereo unspecified) + Cc1cccc(N(C)C(=O)C2C(O)CCN2c2nc(C)cc(C(F)(F)F)c2C#N)c1", 65.2),
    ("CC1COCCN1c1cc(C2(S(C)(=N)=O)CC2)nc(-c2ccnc3[nH]ccc23)n1 (stereo unspecified) + Cc1cccc(N(C)C(=O)C2C(O)CCN2c2nc(C)cc(C(F)(F)F)c2C#N)c1", 64.5),
    ("C=CC(=O)N1CCN(c2nc(=O)n(-c3c(C)ccnc3C(C)C)c3nc(-c4c(O)cccc4F)c(F)cc23)C(C)C1 (stereo unspecified) + COC1C(OC(N)=O)C(O)C(Oc2ccc3c(O)c(NC(=O)c4ccc(O)c(CC=C(C)C)c4)c(=O)oc3c2C)OC1(C)C", 105),
    ("CCc1cc2c(N3CCc4c(cc(Cn5ccnc5)cc4-c4cn(C)nc4C(F)(F)F)C3=O)ccnc2c(OC)n1 + Nc1ccc(C#CCN(C(=O)Cc2ncc(C(F)(F)F)cc2C(F)(F)F)c2ccc(F)cc2)nn1", 76.2),
    ("CNCc1ccc(-c2[nH]c3cc(F)cc4c3c2CCNC4=O)cc1 + Cc1cccc(N(C)C(=O)C2C(O)CCN2c2nc(C)cc(C(F)(F)F)c2C#N)c1", 106),
    ("CNCc1ccc(-c2[nH]c3cc(F)cc4c3c2CCNC4=O)cc1 + Nc1ccc(C#CCN(C(=O)Cc2ncc(C(F)(F)F)cc2C(F)(F)F)c2ccc(F)cc2)nn1", 106),
    ("O=C(Nc1ccc(O)c(NS(=O)(=O)c2ccc(F)cc2)c1)c1ccc(-c2ccccc2)cc1 + Nc1ccc(C#CCN(C(=O)Cc2ncc(C(F)(F)F)cc2C(F)(F)F)c2ccc(F)cc2)nn1", 105),
    ("Nc1ccn(C2OC(CO)C(O)C2(F)F)c(=O)n1 (stereo unspecified) + Cc1cccc(N(C)C(=O)C2C(O)CCN2c2nc(C)cc(C(F)(F)F)c2C#N)c1", 65.8),
    ("COc1cc(C2c3cc4c(cc3C(OC3OC5COC(C)OC5C(O)C3O)C3COC(=O)C23)OCO4)cc(OC)c1O (stereo unspecified) + Cc1cccc(N(C)C(=O)C2C(O)CCN2c2nc(C)cc(C(F)(F)F)c2C#N)c1", 65.8),
]
